FYI, the data here is from the supplement of paper PMC10567573.

B1: ANKRD40 (parent)
chain: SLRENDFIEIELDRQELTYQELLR

- Variants of: B1
- protocol_notes: protein stability index of a GFP-peptide fusion (GPS, HEK-293T) (PSI 1-6); higher = more stable;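 also: lentivirally expressed fusions sorted by FACS into six bins by GFP to DsRed ratio, PSI derived from sequencing read proportions per bin multiplied by bin number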
- settings: c terminus: a fixed tail appended
Kindly supply the reported protein stability index values for the records listed here.
# print the numeric value only

Lab note: I8M gave protein stability index of 4.11

Lab note: R14L gave protein stability index of 1.73

Lab note: E11N gave protein stability index of 3.33

Lab note: T18V gave protein stability index of 2.22

Lab note: I8N gave protein stability index of 4.1

Lab note: L22E gave protein stability index of 3.66

Lab note: I10W gave protein stability index of 3.19

Lab note: Q15S gave protein stability index of 3.17

Lab note: E21C gave protein stability index of 1.94

Lab note: S1E gave protein stability index of 3.41

Lab note: F7R gave protein stability index of 3.69
